# maps each entry to its apparent KD of MS2 coat protein
Test system: MS2 coat protein
Assay: apparent KD of MS2 coat protein; higher = weaker reporter binding
Conditions: Eterna round: R107; input ligand: tryptophan 2.4 mM

Look up and state reported apparent KD of MS2 coat protein for ACAUUUAACUGAAGGAGCGUGAUAAACAUGAGGAUCACCCAUGUACCAAAGAUUUUCAGAUCACAGGUAGGUCGCAGACUAAUGA [JR_ExcArginiB_Sub015]
13.3 nM

Give me measured apparent KD of MS2 coat protein, please, for this sequence: GGUUGAUAUAUAUAUAUAUUGAUUACUGAAGGAGCGGGAAAUAACCCAGGUAGGUCGCAGAGAUCCACAUGAGGAUCACCCAUGU [!0.F]
56.9 nM

Would you kindly look at the next entry?
Supply apparent KD of MS2 coat protein value. Item: AACAACAAGGGAAGGAGCGCGAAUAAUAAACAUGAGGAUCACCCAUGUAUCAUGGGCUUAACGCAGGUAGGUCGCCCACAAACAA [Exclusion Arginine B GF1]
40.6 nM

---

Test system: MS2 coat protein
Test: apparent KD of MS2 coat protein; designed switch direction (-1 OFF switch, 1 ON switch): 1; higher = weaker reporter binding
Conditions: input ligand: none
# reported apparent KD of MS2 coat protein; entries follow
Supply the numeric figure in nM, leaving out any unit text.

Check out these entries, answers already filled in.
Quick one: give measured apparent KD of MS2 coat protein for GGAAGGAGGUCAGGAUAUGAACGGAAGGUACAUGAGGAUCACCCAUGUUACGGAGGAAGGAAACGUUAGAAGGGACAAGGAAGG [AK SSNG2-V2-3] (Eterna round: R96, puzzle: Same State NG 2)
18.1

// fetch apparent KD of MS2 coat protein given entry GCUAGGAUAUGACCAGGAUCACCGGUUAGAAGGAGCGAAAGCUAGGAUAUGACCAGGAUCACCGGUUAGAAGGAGCUGUCCUCC [pwkr ssNG3 DX 2xF5 +2xFMN.12] (Eterna round: R96, puzzle: Same State NG 3)
117

Kindly review the next sequence as well.
In one line, give reported apparent KD of MS2 coat protein of the entry GAAUUAAGAGUAGGAUAUGUGGGCGAGCUGCCACCCACAUGAGGAUCACCCAUGUAUGGACACUCACAGAAGGGCUUAUUCAAC [Eternabot solution 37] (Eterna round: R96, puzzle: Same State NG 2) .
64.8

---

System: MS2 coat protein
Assay: apparent KD of MS2 coat protein; designed switch direction (-1 OFF switch, 1 ON switch): -1; higher = weaker reporter binding
Settings: Eterna round: R95; input ligand: FMN 200 uM
READOUT_NAME: apparent KD of MS2 coat protein (µM)
Give the value in µM but do not write µM after it.

# count of solved cases: 3
Give reported apparent KD of MS2 coat protein value for UAAUACAAGCAAAGAUCUUACAUGAGGAUCACCCAUGUGCUCGUCUUAUAAAGUACUAUCACGAAAGUGAUAGUACA [Mat - Sensor v3 - turn-off var 1 - Eli Mod - D93] (puzzle: Sensor v3, turn-off variant 1)
0.0204

Output apparent KD of MS2 coat protein of AAGUAUAGAGGAUAUAGUAGUUACAACAUGAGGAUCACCCAUGUUCUUCAUAACGUAGAUCUAGAAGGCUGAUAAA [EX-5 Malc#29] (puzzle: Exclusion 5)
0.145

Item GUAGAGUAAGGAUAUGCAGAAUAGGAUAGAAUGGUUAGAAUGUAGAAGGUACAUGAGGAUCACCCAUGUAAUGU [Excluse me!!!! 10 - Jieux - Exclusion 4] (puzzle: Exclusion 4) : provide apparent KD of MS2 coat protein
0.0208

***
Answer with the recorded apparent KD of MS2 coat protein for the sequence listed here: UAGAAUCGAGGAUAUACAUGAGGAUCACCCAUGUGUGGCCACACGGUGUGGUCGUCAGGUAGAAGGCGAUUACA [Exclusion 3 - Mod of Jieux's Gilly Gone Silly 23 v.3] (puzzle: Exclusion 3)
0.0199

Output apparent KD of MS2 coat protein of CUUCACCCACCAGAGCACACCCACAUACCUGCUCAGGUGACAUGAGGAUCACCCAUGUUUUUUGCCCGUCUUAUCUU [Tilevere] (puzzle: Sensor v3, turn-off variant 2)
0.0316
